Target: human sphingosine-1-phosphate receptor 1 (S1P1) (Homo sapiens (Human), UniProt P21453)
Test: β-Arrestin2 recruitment assay (PathHunter), S1P1 CHO-K1 cells
Format: cell-based
Conditions: β-arrestin2 recruitment, S1P1 CHO-K1 cells
Sequence (P21453 whole entry, looked up): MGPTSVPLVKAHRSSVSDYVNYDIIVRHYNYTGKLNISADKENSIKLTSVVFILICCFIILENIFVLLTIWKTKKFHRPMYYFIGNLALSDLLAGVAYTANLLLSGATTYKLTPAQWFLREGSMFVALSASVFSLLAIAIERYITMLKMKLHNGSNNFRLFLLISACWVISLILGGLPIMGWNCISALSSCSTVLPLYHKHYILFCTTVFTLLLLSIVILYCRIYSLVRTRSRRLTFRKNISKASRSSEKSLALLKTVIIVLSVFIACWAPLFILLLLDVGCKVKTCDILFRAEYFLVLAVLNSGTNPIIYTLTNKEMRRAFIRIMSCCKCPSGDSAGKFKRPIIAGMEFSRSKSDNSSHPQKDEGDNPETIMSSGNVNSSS
Sequence (P32121 whole entry partner, looked up): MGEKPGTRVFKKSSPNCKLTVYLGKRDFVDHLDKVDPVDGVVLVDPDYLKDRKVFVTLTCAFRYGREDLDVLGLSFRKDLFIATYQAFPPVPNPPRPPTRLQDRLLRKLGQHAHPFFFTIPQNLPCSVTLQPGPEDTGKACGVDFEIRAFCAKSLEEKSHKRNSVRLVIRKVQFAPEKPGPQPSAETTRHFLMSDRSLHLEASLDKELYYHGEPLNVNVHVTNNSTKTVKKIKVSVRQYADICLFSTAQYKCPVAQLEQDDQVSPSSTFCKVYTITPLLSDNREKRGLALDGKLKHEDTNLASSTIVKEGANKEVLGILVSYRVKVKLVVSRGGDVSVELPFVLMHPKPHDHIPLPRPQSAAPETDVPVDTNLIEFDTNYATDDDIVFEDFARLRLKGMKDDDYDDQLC
VALUE TYPE: hS1P1 B-arrestin2 pEC50

{"MOLECULE": "CCC1(CC)CC(=O)c2cc(-c3nc(-c4cccs4)no3)ccc2N1 [Compound 591]", "hS1P1 B-arrestin2 pEC50": ">5"}

So what does the record say about hS1P1 B-arrestin2 pEC50 for CCC1(CC)CC(=O)c2cc(-c3nc(-c4ccc(O)cc4)no3)ccc2O1 [Compound 72] ? >5

So what does the record say about hS1P1 B-arrestin2 pEC50 for CCC1(CC)CC(=O)c2cc(-c3nc(-c4ccc(S(=O)(=O)N(C)C)cc4)no3)ccc2O1 [Compound 30] ? <5

So what does the record say about hS1P1 B-arrestin2 pEC50 for Cc1ccncc1-c1noc(-c2ccc3c(c2)nnn3C2CCOCC2)n1 [Compound 439] ? <5

So what does the record say about hS1P1 B-arrestin2 pEC50 for CC(C)n1nnc2cc(-c3nc4c(o3)CCc3sccc3-4)ccc21 [Compound 456] ? <5

So what does the record say about hS1P1 B-arrestin2 pEC50 for CCC1(CC)CC(=O)c2cc(-c3nc(-c4cc[nH]c4)no3)ccc2O1 [Compound 485] ? <5

So what does the record say about hS1P1 B-arrestin2 pEC50 for Cc1ccsc1-c1noc(-c2ccc3c(c2)nnn3CC(C)C)n1 [Compound 75] ? >5

So what does the record say about hS1P1 B-arrestin2 pEC50 for CCC1(CC)CC(=O)c2cc(-c3nc(-c4cnc[nH]4)no3)ccc2O1 [Compound 466] ? <5

So what does the record say about hS1P1 B-arrestin2 pEC50 for CC(C)n1nnc2cc(-c3nc(-c4cccc5c4OCO5)no3)ccc21 [Compound 32] ? >5

====

Emax overview
Biological target: human sphingosine-1-phosphate receptor 1 (S1P1) (Homo sapiens (Human), UniProt P21453)
Test: β-Arrestin2 recruitment assay (PathHunter), S1P1 CHO-K1 cells
Assay type: cell-based
Conditions: CHO-K1; efficacy (SPAN) normalized to fingolimod; read-out: hS1P1 B-arrestin2 SPAN

Study these solved cases before continuing.
{"STRUCTURE AS SMILES": "COCC1(COC)CC(=O)c2cc(-c3nc(-c4cccnc4)no3)ccc2O1", "ASSAY RESULT": "< 75%"}
{"STRUCTURE AS SMILES": "CCC1(CC)CC(=O)c2cc(-c3nc(-c4ccccc4C)no3)ccc2O1", "ASSAY RESULT": "> 75%"}
{"STRUCTURE AS SMILES": "CC(C)n1nnc2cc(-c3nc(-c4ccccn4)no3)ccc21", "ASSAY RESULT": "> 75%"}
{"STRUCTURE AS SMILES": "N#Cc1cc(-c2nnc(-c3ccc4[nH]cnc4c3)o2)ccc1NC(CF)CF", "ASSAY RESULT": "> 75%"}
{"STRUCTURE AS SMILES": "COCCn1cc(-c2ccccc2C)cc1-c1ccc2c(c1)nnn2C(C)C", "ASSAY RESULT": "< 75%"}

Under human sphingosine-1-phosphate receptor 1 (S1P1) (Homo sapiens (Human), UniProt P21453): Emax value of CCC1(CC)CC(=O)c2cc(-c3nc(-c4ccnc(C)c4)no3)ccc2O1 ? < 75%

Under human sphingosine-1-phosphate receptor 1 (S1P1) (Homo sapiens (Human), UniProt P21453): Emax value of CC(C)Cn1nnc2cc(-c3nc4ccncc4o3)ccc21 ? < 75%

Under human sphingosine-1-phosphate receptor 1 (S1P1) (Homo sapiens (Human), UniProt P21453): Emax value of COc1cccc2oc(-c3ccc4c(c3)nnn4CC(C)C)nc12 ? > 75%

====

Target: human sphingosine-1-phosphate receptor 1 (S1P1) (Homo sapiens (Human), UniProt P21453)
Assay: β-Arrestin2 recruitment assay (PathHunter), S1P1 CHO-K1 cells
Type: cell-based
Settings: β-arrestin2 recruitment, S1P1 CHO-K1 cells
Experimental: Stable clonal Chinese hamster ovary K1 (CHO-K1) cells co-expressing EA-β-arrestin2 and the human sphingosine-1-phosphate receptor 1 (NM_001400, S1P1) with a C-terminal Prolink™ tag were purchased from DiscoverX corporation (Cat #: 93-0207C2). […] Agonist-promoted β-arrestin2 recruitment to the sphingosine-1-phosphate 1 receptor was determined using the β-arrestin PathHunter®) Detection kit (DiscoverX Corporation, Cat #: 93-0001). […]
VALUE TYPE: hS1P1 B-arrestin2 pEC50

Study these solved cases before continuing.
{"COMPOUND": "Cc1ccccc1-c1noc(-c2ccc3c(c2)nnn3C2CC2)n1 [Compound 171]", "hS1P1 B-arrestin2 pEC50": ">5"}
{"COMPOUND": "CCC1(CC)CC(=O)c2cc(-c3ncc(-c4cccnc4)cn3)ccc2O1 [Compound 509]", "hS1P1 B-arrestin2 pEC50": "<5"}

# input for lookup
So what does the record say about hS1P1 B-arrestin2 pEC50 for CC(C)n1nnc2cc(-c3nc(-c4ccccc4Br)no3)ccc21 [Compound 282] ? >5

====

hS1P1 cAMP pEC50 overview
Target: human sphingosine-1-phosphate receptor 1 (S1P1) (Homo sapiens (Human), UniProt P21453)
Assay: Inhibition of cAMP production (HTRF cAMP HiRange), S1P1 CHO-K1 cells
Type: cell-based
Conditions: inhibition of cAMP production, S1P1 CHO-K1 cells
Sequence (P21453 whole entry, looked up): as the sequence (P21453 whole entry, looked up) above

Study these solved cases before continuing.
{"COMPOUND": "CC(F)(F)CNc1ccc(-c2nnc(-c3ccc4[nH]cnc4c3)o2)cc1C#N", "VALUE TYPE": "hS1P1 cAMP pEC50", "ASSAY RESULT": ">6.5"}
{"COMPOUND": "Cc1cccc(C)c1-c1noc(-c2ccc3c(c2)nnn3C(C)C)n1", "VALUE TYPE": "hS1P1 cAMP pEC50", "ASSAY RESULT": "<6.5"}
{"COMPOUND": "N#Cc1cc(-c2nnc(-c3ccc4[nH]cnc4c3)o2)ccc1NC(CF)CF", "VALUE TYPE": "hS1P1 cAMP pEC50", "ASSAY RESULT": ">6.5"}
{"COMPOUND": "CCC1(CC)CC(=O)c2cc(-c3nc(-c4ccncc4F)no3)ccc2O1", "VALUE TYPE": "hS1P1 cAMP pEC50", "ASSAY RESULT": "<6.5"}
{"COMPOUND": "CC(C)n1nnc2cc(-c3noc(-c4ccc(-c5ccccc5)cc4)n3)ccc21", "VALUE TYPE": "hS1P1 cAMP pEC50", "ASSAY RESULT": "<6.5"}
{"COMPOUND": "CC(C)n1nnc2cc(-c3ncc(-c4ccccc4F)s3)ccc21", "VALUE TYPE": "hS1P1 cAMP pEC50", "ASSAY RESULT": ">6.5"}
{"COMPOUND": "CC(C)(O)Cn1nnc2cc(-c3nc(-c4ccc5nonc5c4)no3)ccc21", "VALUE TYPE": "hS1P1 cAMP pEC50", "ASSAY RESULT": "<6.5"}
{"COMPOUND": "CCC1(CC)CC(=O)c2cc(-c3nc(-c4cncc(F)c4)no3)ccc2O1", "VALUE TYPE": "hS1P1 cAMP pEC50", "ASSAY RESULT": ">6.5"}
{"COMPOUND": "Cc1cc(-c2nc(-c3ccc4c(c3)nnn4C(C)C)no2)cc(C)n1", "VALUE TYPE": "hS1P1 cAMP pEC50", "ASSAY RESULT": ">6.5"}
{"COMPOUND": "CCC1(CC)CC(=O)c2cc(-c3nc(-c4ccccc4OC)no3)ccc2O1", "VALUE TYPE": "hS1P1 cAMP pEC50", "ASSAY RESULT": ">6.5"}

So what does the record say about hS1P1 cAMP pEC50 for COc1ccc(-c2noc(-c3ccc4c(c3)nnn4C3CCCC3)n2)cc1C(F)(F)F ? <6.5

So what does the record say about hS1P1 cAMP pEC50 for CC(C)n1nnc2cc(C(=O)Nc3noc4ccccc34)ccc21 ? <6.5

So what does the record say about hS1P1 cAMP pEC50 for Cc1ccccc1-c1nc(-c2ccc3c(c2)nnn3CC(C)(C)CO)no1 ? <6.5

So what does the record say about hS1P1 cAMP pEC50 for CC(C)n1nnc2cc(-c3nc4c(o3)CCc3sccc3-4)ccc21 ? >6.5

So what does the record say about hS1P1 cAMP pEC50 for c1cc(-c2noc(-c3ccc4c(c3)nnn4C3CCCC3)n2)ccn1 ? >6.5

So what does the record say about hS1P1 cAMP pEC50 for CC(C)n1nnc2cc(-c3noc(-c4ccc(COc5ccccc5)cc4)n3)ccc21 ? <6.5

So what does the record say about hS1P1 cAMP pEC50 for CCC1(CC)CC(=O)c2cc(-c3nc(-c4cc[nH]c4)no3)ccc2O1 ? >6.5

So what does the record say about hS1P1 cAMP pEC50 for Cc1ccc(-c2noc(-c3ccc4c(c3)nnn4C3CC3)n2)cn1 ? <6.5

So what does the record say about hS1P1 cAMP pEC50 for COc1ccccc1-c1noc(-c2ccc3[nH]ncc3c2)n1 ? <6.5

So what does the record say about hS1P1 cAMP pEC50 for CC1CC(=O)c2ccc(-c3nc(-c4ccncc4)no3)cc2O1 (stereo not shown) ? <6.5

So what does the record say about hS1P1 cAMP pEC50 for CC(C)n1nnc2cc(-c3nc(-c4ccccn4)co3)ccc21 ? <6.5

So what does the record say about hS1P1 cAMP pEC50 for Cc1nc2cc(-c3nc(-c4ccc5c(c4)nnn5C(C)C)no3)ccc2[nH]1 ? >6.5
